# assay_remarks: yeast display, Sf9 membrane polyspecificity reagent, FACS + sequencing; frameworks hold sequencing errors
test_readout: polyreactivity (PSR sort gate)

Worked set:
monomer_sequence: QVQLVQSGGGLVQAGGSLSLSCAGSGSTFHNYAMGWYRQAPGQEREMVAGISVRGGGTYYAYSVKGRFTISRDNANNTVYVQMNSLKPEETAVYYCAASRSRYSVNWYNYWGQGTQVTVSS
polyreactivity (PSR sort gate): high polyreactivity
--
monomer_sequence: QVQLVESGGGLVQAGGSLRLSCAASGSTFWFNGMGWYRQAPGKERELVAVITFSTGSTSYADSVKGRCTISRDDAKNTVYLQMNSLKPEDTAVYYCAAEYVIYYWFEWLDLDYWGQGTQVTVSS
polyreactivity (PSR sort gate): high polyreactivity
--
monomer_sequence: QVQLVESGGGLVQAGGSLRLSCAASGRIFGGYAMGWYRQAPGKERELVAVINGGTSTKYADSVKGRFTISRDNAKNTVYLQMNSLKPEDNAVYYCAKTRHDSLQNRNRYDYWGQGTQVTVSS
polyreactivity (PSR sort gate): low polyreactivity
--
monomer_sequence: QVQLVESGGGLVQAGGSLRLSCAASGFTFQYYDMGWYRQAPGKERELVAAISWSGGSTYYADSVKGRFTISRDNAKNTVYFQMNSLKPEDTAVYYCAAGYTRSRHYTPYDYWGQGTQVTVSS
polyreactivity (PSR sort gate): high polyreactivity
--
monomer_sequence: QVQLVESGGGLVQAGGSLRLSCAASGITFSYNAMGWYRQAPGKERELVAAISSNSDSTYYADSVKGRFTISRDNAKNTVYLQMISLKPEDTAVYYCADDTPDAPDYSGFYYWGQGTQVTVSS
polyreactivity (PSR sort gate): low polyreactivity

# lookup: polyreactivity (PSR sort gate) of "QVHLVESGGGLVQAGGSLRLSCAASGRTFGWNVMGWYRQAPGKERELVAAISGSGGSTYYADSVKGRFTISRDNAKNTVYLQMMSLKPEDTAVYYCAKEYPWMPRSYEYWGQGTQVTVSS"
low polyreactivity

# lookup: polyreactivity (PSR sort gate) of "QVQLVESGGGLVQAGCSLRLICAASGFTFGRNAMGWYRQAPGKEREFVADISGSVGSTYYADSVKGRFTISRDNAKNTVYLQMNSLKPEDTAVYYCAADTLYTRWEFDYWGQGTLVTVSS"
high polyreactivity

# lookup: polyreactivity (PSR sort gate) of "QVQLVESGGGLVQAGGSLRLSCAASGLIFQYYVMGWYRQAPGKERELVAAISARGGGTYYADSVKGRFTISRDNEKITVYLQMNSLKPEDTAVYYCAADFGTIRVYSGDYWGQGTQVTVSS"
high polyreactivity

# lookup: polyreactivity (PSR sort gate) of "QVQLVESGGGLVQAGGSLRLSCAAYGFIFGGNAMGWYRQAPGKERELVAAITARSGSTYYADSVKGRFTISRDNAKNTVYLQMNSLKPEDTAVYYCATPVYRSTYEYDYWGQGTQVTVSS"
low polyreactivity

# lookup: polyreactivity (PSR sort gate) of "QVQLVESGGGLVQARGSLRLSCAASGLTSRYYAMGWYRQAPGKERELVAAISSRGGRTYYADSVKGPFTISRDNAKNTVYLQMNSLQPEDTAVYYCYAAAGAYSFLSTYNRGEEYWGQGTQVTVSS"
high polyreactivity

# lookup: polyreactivity (PSR sort gate) of "QVQPQESGGGLVQAGGSLRLSCAASGTIFAFQTMGWYRQAPGKERELVASITYGSSTNYADSVKGRFTISRDNAKNTVYLQMNSLKPEDTAVYYCAVPQAQYYYDYWGQGTQVTVSS"
high polyreactivity
